Reported koff is given for each of the following binders.
Assay Target: T1, recombinant human LAG-3-his protein (Novoprotein) (human, UniProt P18627 23-450)
T1 construct: Bought; also called huLAG-3; not shown: His tag
T1 sequence (looked up): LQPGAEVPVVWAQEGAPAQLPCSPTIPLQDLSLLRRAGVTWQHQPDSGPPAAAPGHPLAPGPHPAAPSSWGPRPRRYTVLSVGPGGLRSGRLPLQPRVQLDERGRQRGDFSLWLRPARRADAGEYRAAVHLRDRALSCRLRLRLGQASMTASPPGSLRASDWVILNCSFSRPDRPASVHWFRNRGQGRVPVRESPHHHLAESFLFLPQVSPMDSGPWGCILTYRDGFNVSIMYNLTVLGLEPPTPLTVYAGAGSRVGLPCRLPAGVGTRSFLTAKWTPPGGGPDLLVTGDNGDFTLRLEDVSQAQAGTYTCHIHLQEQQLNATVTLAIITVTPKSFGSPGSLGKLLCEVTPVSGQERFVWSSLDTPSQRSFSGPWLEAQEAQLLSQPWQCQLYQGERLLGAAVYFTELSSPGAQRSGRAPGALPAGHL
Experiment: BLI Octet, Ab on AHC sensor, huLAG-3-his; test group 1
Experimental: All 9 humanized antibodies (Table 25) and a chimeric antibody having the parental murine VH and VL domains (mAb747c) were ranked by dissociation rate constant (koff). Briefly, antibodies were characterized for affinities and binding kinetics by Octet RED96 biolayer interferometry (Pall FortéBio LLC). […] Binding was measured by dipping sensors into a single concentration of recombinant human LAG-3-his protein (Novoprotein). […]
Answer with a number only, understood to be in s⁻¹.

Below: 2 binders and their reported koff.
- Binder: "B3-48-IgG (antibody, V domains shown, human IgG1/kappa constant domains) VH: EVQLVQSGAEVKKPGASVKVSCKASDFSIKDDYMHWVRQAPGQGLEWIGWIVPENGKTEYASKFQGRVTITADTSINTAYMELSRLRSDDTAVYYCTVYGDYWGQGTTVTVSS VL: DIQMTQSPSSLSASVGDRVTINCRASQEISGYLSWLQQKPEGTIKRLIYAAMTLDSGVPSRFSGSRSGSDYTLTISSLQPEDFATYYCLQYASYPLTFGGGTKVEIK"
  Obs Value: 0.00285
- Binder: "B3-43-IgG (antibody, V domains shown, human IgG1/kappa constant domains) VH: EVQLVQSGAEVKKPGASVKVSCKASGFNIKDDYMHWVCQAPGQGLEWIGWIVPENGNTEYASKFQGRVTITADTSINTAYMELSRLRSDDTAVYYCTVYGDYWGQGTTVTVSS VL: DIQMTQSPSSLSASVGDRVTINCRASQEISGYLSWLQQKPEGTIKRLIYAASHLDSGVPSRFSGSRSGSDYTLTISSLQPEDFATYYCLQYASYPLTFGGGTKVEIK"
  Obs Value: 0.00588

Let's switch to this binder now.
I'd like to know its koff. The binder in question is B3-46-IgG (antibody, V domains shown, human IgG1/kappa constant domains) VH: EVQLVQSGAEVKKPGASVKVSCKASGFNIKDDYMHWVRQAPGQGLEWIGWIVPENGLTEYASKFQGRVTITADTSINTAYMELSRLRSDDTAVYYCTVYGDYWGQGTTVTVSS VL: DIQMTQSPSSLSASVGDRVTINCRASQEISGYLSWLQQKPEGTIKRLIYATSTLDSGVPSRFSGSRSGSDYTLTISSLQPEDFATYYCLQYASYPLTFGGGTKVEIK
0.00248
